assay: Encapsulation rate, drug loading concentration and total RNA concentration detection (RiboGreen); type: physicochemical
Entries and their measured drug loading concentration, times that of SM-102 follow.
assay_endpoint: drug loading concentration, times that of SM-102 (times)

| compound | recorded_number |
| --- | --- |
| CCCCCCCCCCCOC(=O)CCCCCN(CCCCCCCC(=O)OC(CCCCCCC)CCCCCCC)CCN(C)CCO [YK-206] | 1.50 |
| CCCCCCCCCCCOC(=O)CCCCCN(CCCCCCCC(=O)OC(CCCCCCCC)CCCCCCCC)CCN(C)CCO [YK-201] | 1.58 |
| CCCCCCCCCCCOC(=O)CCCCCN(CCCCCCCC(=O)OCC(CCCCCCCC)CCCCCCCC)CCN(C)CCO [YK-202] | 1.46 |
| CCCCCCCCCCOC(=O)CCCN(CCCCCC(=O)OCC(CCCCCCCC)CCCCCCCC)CCN(C)CCO [YK-207] | 1.56 |
| CCCCCCCCC(CCCCCCCC)COC(=O)CCCCCN(CCCCCC(=O)OCC(CCCCCCCC)CCCCCCCC)CCN(C)CCO [YK-209] | 1.64 |

====

tested on: 293T cells; experiment: Fluorescence detection of Fluc-mRNA (cell transfection efficiency of LNP formulations); assay type: cell-based; settings: Fluc-mRNA LNP
assay_endpoint: RLU / cell transfection efficiency, times that of YK-009

| record_smiles | assay_system | result |
| --- | --- | --- |
| CCCCCCCCCCCOC(=O)CCCCCN(CCCCCCCC(=O)OC(CCCCCCCC)CCCCCCCC)CCN(C)CCO | 293T cells | 5.56 times |
| CCCCCCCCCCOC(=O)CCCN(CCCCCC(=O)OCC(CCCCCCCC)CCCCCCCC)CCN(C)CCO | 293T cells | 4 times |
| CCCCCCCCC(CCCCCCCC)COC(=O)CCCCCN(CCCCCC(=O)OCC(CCCCCCCC)CCCCCCCC)CCN(C)CCO | 293T cells | 5.24 times |
| CCCCCCCCCCCOC(=O)CCCCCN(CCCCCCCC(=O)OCC(CCCCCCCC)CCCCCCCC)CCN(C)CCO | 293T cells | 5.84 times |
| CCCCCCCCCCCOC(=O)CCCCCN(CCCCCCCC(=O)OC(CCCCCCC)CCCCCCC)CCN(C)CCO | 293T cells | 4 times |

====

Entries and their measured Total RNA concentration follow.
experiment: Encapsulation rate, drug loading concentration and total RNA concentration detection (RiboGreen); assay type: physicochemical; conditions: LNP formulation of the named lipid

| record_smiles | unit | Total RNA concentration |
| --- | --- | --- |
| CCCCCCCCCCOC(=O)CCCN(CCCCCC(=O)OCC(CCCCCCCC)CCCCCCCC)CCN(CC)CCO | µg/mL | 42.84 |
| CCCCCCCCC(CCCCCCCC)COC(=O)CCCCCN(CCCCCC(=O)OCC(CCCCCCCC)CCCCCCCC)CCN(CCO)CCO | µg/mL | 42.62 |
| CCCCCCCCC(CCCCCCCC)OC(=O)CCCCCN(CCCCCC(=O)OC(CCCCCCCC)CCCCCCCC)CCN(CCO)CCO | µg/mL | 42.34 |
| CCCCCCCCCCCOC(=O)CCCCCN(CCCCCCCC(=O)OCCC(CCCCCC)CCCCCC)CCN(C)CCO | µg/mL | 42.19 |
| CCCCCCCCCCCOC(=O)CCCCCN(CCCCCCCC(=O)OCC(CCCCCCCC)CCCCCCCC)CCN(C)CCO | µg/mL | 42.98 |
| CCCCCCCCCCOC(=O)CCCN(CCCCCC(=O)OCC(CCCCCCCC)CCCCCCCC)CCN(C)CCOC | µg/mL | 44.64 |
| CCCCCCCCCCOC(=O)CCCN(CCCCCC(=O)OCC(CCCCCCCC)CCCCCCCC)C(=O)SCCCN(C)C | µg/mL | 47.23 |

====

test: Particle size and polydispersity index (PDI) of nanolipid particles, dynamic light scattering; format: physicochemical; conditions: LNP formulation prepared from the named cationic lipid, 25° C
Assign class by PDI: not lower than 20% means 1; lower than 20% means 0.

| compound | category |
| --- | --- |
| CCCCCCCCCCOC(=O)CCCN(CCCCCC(=O)OCCC(CCCCCC)CCCCCC)CCOC(=O)SCCCN(C)C | 0 |
| CCCCCCCCC(CCCCCCCC)OC(=O)CCCCCN(CCCCCC(=O)OC(CCCCCCCC)CCCCCCCC)CCN(C)CCNC | 1 |
| CCCCCCCCC(CCCCCC)C(=O)OCCCCCCN(CCCCO)CCCCCCOC(=O)C(CCCCCC)CCCCCCCC (stereo not shown) [ALC-0315, reference compound] | 0 |
| CCCCCCCCCCOC(=O)CCCN(CCCCCC(=O)OCC(CCCCCCCC)CCCCCCCC)CCN(C)CCO | 0 |
| CCCCCCCCCCOC(=O)CCCN(CCCCCC(=O)OCC(CCCCCCCC)CCCCCCCC)CCN(C)CCNC | 1 |
| CCCCCCCCCCOC(=O)CCCN(CCO)CCCCCC(=O)OCC(CCCCCCCC)CCCCCCCC [YK-009, reference compound] | 0 |
| CCCCCCCCCCOC(=O)CCCN(CCCCCC(=O)OCC(CCCCCCCC)CCCCCCCC)CCOC(=O)SCCCN(C)C | 0 |

====

Entries and their measured drug loading concentration, times that of YK-009 follow.
experiment: Encapsulation rate, drug loading concentration and total RNA concentration detection (RiboGreen); format: physicochemical
assay_endpoint: drug loading concentration, times that of YK-009

| compound | result |
| --- | --- |
| CCCCCCCCCCCOC(=O)CCCCCN(CCCCCCCC(=O)OC(CCCCCCC)CCCCCCC)CCN(C)CCO [YK-206] | 1.42 times |
| CCCCCCCCCCCOC(=O)CCCCCN(CCCCCCCC(=O)OCC(CCCCCCCC)CCCCCCCC)CCN(C)CCO [YK-202] | 1.38 times |
| CCCCCCCCCCOC(=O)CCCN(CCCCCC(=O)OCC(CCCCCCCC)CCCCCCCC)CCN(C)CCO [YK-207] | 1.47 times |
| CCCCCCCCC(CCCCCCCC)COC(=O)CCCCCN(CCCCCC(=O)OCC(CCCCCCCC)CCCCCCCC)CCN(C)CCO [YK-209] | 1.55 times |
| CCCCCCCCCCCOC(=O)CCCCCN(CCCCCCCC(=O)OC(CCCCCCCC)CCCCCCCC)CCN(C)CCO [YK-201] | 1.50 times |

====

test: Encapsulation rate, drug loading concentration and total RNA concentration detection (RiboGreen); assay type: physicochemical
assay_endpoint: drug loading concentration, times that of compound 21 (times)

| record_smiles | unit | recorded_number |
| --- | --- | --- |
| CCCCCCCCCCOC(=O)CCCN(CCCCCC(=O)OCC(CCCCCCCC)CCCCCCCC)CCN(C)CCO | times | 1.75 |
| CCCCCCCCCCCOC(=O)CCCCCN(CCCCCCCC(=O)OC(CCCCCCCC)CCCCCCCC)CCN(C)CCO | times | 1.78 |
| CCCCCCCCC(CCCCCCCC)COC(=O)CCCCCN(CCCCCC(=O)OCC(CCCCCCCC)CCCCCCCC)CCN(C)CCO | times | 1.85 |
| CCCCCCCCCCCOC(=O)CCCCCN(CCCCCCCC(=O)OCC(CCCCCCCC)CCCCCCCC)CCN(C)CCO | times | 1.64 |
| CCCCCCCCCCCOC(=O)CCCCCN(CCCCCCCC(=O)OC(CCCCCCC)CCCCCCC)CCN(C)CCO | times | 1.69 |

====

tested on: 293T cells; test: Fluorescence detection of Fluc-mRNA (cell transfection efficiency of LNP formulations); assay type: cell-based; conditions: Fluc-mRNA LNP
assay_endpoint: RLU / cell transfection efficiency, times that of Lipofectamine 3000

| record_smiles | result |
| --- | --- |
| CCCCCCCCCCCOC(=O)CCCCCN(CCCCCCCC(=O)OC(CCCCCCCC)CCCCCCCC)CCN(C)CCO | 23.71 times |
| CCCCCCCCCCOC(=O)CCCN(CCCCCC(=O)OCC(CCCCCCCC)CCCCCCCC)CCN(C)CCO | 17 times |
| CCCCCCCCCCCOC(=O)CCCCCN(CCCCCCCC(=O)OCC(CCCCCCCC)CCCCCCCC)CCN(C)CCO | 24.94 times |
| CCCCCCCCCCCOC(=O)CCCCCN(CCCCCCCC(=O)OC(CCCCCCC)CCCCCCC)CCN(C)CCO | 17 times |
| CCCCCCCCC(CCCCCCCC)COC(=O)CCCCCN(CCCCCC(=O)OCC(CCCCCCCC)CCCCCCCC)CCN(C)CCO | 22.36 times |

====

assay: Encapsulation rate, drug loading concentration and total RNA concentration detection (RiboGreen); type: physicochemical; details: difference of rates
assay_endpoint: encapsulation rate higher than that of YK-009 (%)

| record_smiles | recorded_number |
| --- | --- |
| CCCCCCCCCCCOC(=O)CCCCCN(CCCCCCCC(=O)OCC(CCCCCCCC)CCCCCCCC)CCN(C)CCO | 23.30 |
| CCCCCCCCC(CCCCCCCC)COC(=O)CCCCCN(CCCCCC(=O)OCC(CCCCCCCC)CCCCCCCC)CCN(C)CCO | 33.20 |
| CCCCCCCCCCCOC(=O)CCCCCN(CCCCCCCC(=O)OC(CCCCCCC)CCCCCCC)CCN(C)CCO | 28.40 |
| CCCCCCCCCCCOC(=O)CCCCCN(CCCCCCCC(=O)OC(CCCCCCCC)CCCCCCCC)CCN(C)CCO | 26.50 |
| CCCCCCCCCCOC(=O)CCCN(CCCCCC(=O)OCC(CCCCCCCC)CCCCCCCC)CCN(C)CCO | 27.80 |

Provenance of the data: patent US20260007601A1
